The reported measurements were obtained from patent US11104663B2.

Test: in vivo
Conditions: male, Sprague Dawley (CD), rat, lung, inhaled, 3 mg/kg
readout-type: concentration at 0.5 h

[[record]]
input_smiles = "O=C(O)c1cn(C2CC2)c2cc(N3CCNCC3)c(F)cc2c1=O"
readout_type = "concentration at 0.5 h"
value_observed = "153000 ng/g"


###

Format: physicochemical
Conditions: particle size, 90th percentile
Experimental: The suspensions were sonicated in a bath or with a sonic probe prior to analysis to deagglomerate and form a homogeneous suspension. Particle size was analyzed by both light obscuration and laser diffraction methods.
# Lookup of reported d90 keyed by entry
readout-type: d90 (μm)

[[record]]
compound = "O=C(O)c1cn(C2CC2)c2cc(N3CCNCC3)c(F)cc2c1=O [Example 2 processed Batch 3]"
value_observed = 6.65

[[record]]
compound = "O=C(O)c1cn(C2CC2)c2cc(N3CCNCC3)c(F)cc2c1=O [Ciprofloxacin Raw material, reference compound]"
value_observed = 244

[[record]]
compound = "O=C(O)c1cn(C2CC2)c2cc(N3CCNCC3)c(F)cc2c1=O [Example 2 processed Batch 2]"
value_observed = 13.3

[[record]]
compound = "O=C(O)c1cn(C2CC2)c2cc(N3CCNCC3)c(F)cc2c1=O [Example 2 processed Batch 1]"
value_observed = 9.32


###

Test: Specific surface area analysis (BET)
Conditions: BET method
readout-type: SSA (m^2/g)

[[record]]
compound = "O=C(O)c1cn(C2CC2)c2cc(N3CCNCC3)c(F)cc2c1=O [Example 2 processed Batch 1]"
value_observed = 7.68

[[record]]
compound = "O=C(O)c1cn(C2CC2)c2cc(N3CCNCC3)c(F)cc2c1=O [Example 2 processed Batch 3]"
value_observed = 12.9

[[record]]
compound = "O=C(O)c1cn(C2CC2)c2cc(N3CCNCC3)c(F)cc2c1=O [Example 2 processed Batch 2]"
value_observed = 14.3

[[record]]
compound = "O=C(O)c1cn(C2CC2)c2cc(N3CCNCC3)c(F)cc2c1=O [Ciprofloxacin Raw material, reference compound]"
value_observed = 11.8


###

Assay: in vivo
Conditions: male, Sprague Dawley (CD), rat, lung, inhaled, 3 mg/kg
readout-type: concentration at 6 h (ng/g)

[[record]]
input_smiles = "O=C(O)c1cn(C2CC2)c2cc(N3CCNCC3)c(F)cc2c1=O"
value_observed = 48400


###

Assay: in vivo
Conditions: male, Sprague Dawley (CD), rat, lung, iv, 5 mg/kg
readout-type: concentration at 0.5 h (ng/g)

[[record]]
compound = "O=C(O)c1cn(C2CC2)c2cc(N3CCNCC3)c(F)cc2c1=O [ciprofloxacin, reference compound]"
value_observed = 843


###

Assay: in vivo
Settings: male, Sprague Dawley (CD), rat, lung, inhaled, 3 mg/kg
readout-type: concentration at 12 h (ng/g)

[[record]]
input_smiles = "O=C(O)c1cn(C2CC2)c2cc(N3CCNCC3)c(F)cc2c1=O"
value_observed = 12800


###

Type: physicochemical
Settings: median particle size
readout-type: d50 (μm)

[[record]]
molecule = "O=C(O)c1cn(C2CC2)c2cc(N3CCNCC3)c(F)cc2c1=O [Example 2 processed Batch 2]"
value_observed = 5.57

[[record]]
molecule = "O=C(O)c1cn(C2CC2)c2cc(N3CCNCC3)c(F)cc2c1=O [Ciprofloxacin Raw material, reference compound]"
value_observed = 14.8

[[record]]
molecule = "O=C(O)c1cn(C2CC2)c2cc(N3CCNCC3)c(F)cc2c1=O [Example 2 processed Batch 1]"
value_observed = 4.63

[[record]]
molecule = "O=C(O)c1cn(C2CC2)c2cc(N3CCNCC3)c(F)cc2c1=O [Example 2 processed Batch 3]"
value_observed = 3.26

